PROCEDURE_DETAILS: protease stability score; higher = more stable; yeast display proteolysis, trypsin and chymotrypsin;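 also: log10 excess protease needed over predicted unfolded state with 0 meaning unfolded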
EXPERIMENTAL_ENDPOINT: protease stability score
Hey, just send me the number, nothing else.

Query block: Suppose we examine the sequence "DRDEVHHLHELYKAIEDGDDKKAQDLMDENAKARIGDKHFRGMQHFVETLKKEKDHMRVKIDNMRFTERPNRVVVNIEVKRSNNGEPESEVYRAFADAHNGKFVNLVIEHNQ" ; what protease stability score value has been reported?
Result block: -0.056

Query block: Requested read-out: protease stability score. Entry: "DEEDQKRVLQEIVRMIQSGDPSQAKRLADPNATAEVGDKTYHGREKLSKYAKDLHDRVDRVHIQHYTVEGNKARIRVEVSVNGRTRQFEVKVQYHNGHITRLKVDTS"
Result block: 0.05

Query block: So what's the measured protease stability score for this one? "DRKAKEFAETLYDIFQRGNFENFLELIDKNVTVDVGDRTLHGRQAHEFAKEFQKEQLKVEVDDWHVDNQGEKVRITMTFVLHVNGRPQKQRQEQRFHLHNGRIKSLQVKTDE"
Result block: -0.156
